# Tested on: HDQ-P1
# ASSAY INFO: normalised viability (% of control), CellTiter-Blue; higher = more viable cells (100 = DMSO, 0 = benzethonium chloride kill control)
# EXPERIMENTAL PARAMETERS: incubation time: 72 h
MEASURED PARAMETER: normalised viability (%)

- C[C@@H](Oc1cc(-c2cnn(C3CCNCC3)c2)cnc1N)c1c(Cl)ccc(F)c1Cl [Crizotinib] (1 nM): 61.5
- CCC1(c2ccc(N)cc2)CCC(=O)NC1=O (configuration not stated) [Aminoglutethimide] (1 nM): 92.7
- Oc1nc(-c2ccc(C(F)(F)F)cc2)nc2c1CSCC2 [XAV-939] (1 nM): 97.3
- CC(C)Cn1cnc2c(N)nc3ccccc3c21 [Imiquimod] (1 nM): 104
- CN(C)/N=N/c1[nH]cnc1C(N)=O [Dacarbazine] (1 nM): 105
- CCN(CCCOc1ccc2c(Nc3cc(CC(=O)Nc4cccc(F)c4)[nH]n3)ncnc2c1)CCOP(=O)(O)O [Barasertib] (0.1 nM): 96.5
- N[C@@H](CSC(c1ccccc1)(c1ccccc1)c1ccccc1)C(=O)O [S-trityl-L-cysteine] (4 nM): 96.6
